# Tested on: MS2 coat protein
# Experiment: apparent KD of MS2 coat protein; designed switch direction (-1 OFF switch, 1 ON switch): -1; higher = weaker reporter binding
# Protocol conditions: input ligand: microRNA oligo, concentration not stated
Quantity kind: apparent KD of MS2 coat protein (µM)
I only need the number, in µM, no unit after it.

INSERT INTO results (sequence_code, quantity_kind, unit_abbrev, value_measured) VALUES
  ('GUACUGAAGCUUUGCUUUAAUCGUACAUGAGGAUCACCCAUGUAGGAUAUGGUAGGCUUUGCUUACCAGAAGGACAGAGUGAUC [JL EXNG3 1.24] (Eterna round: R96, puzzle: Exclusion NG 3)', 'apparent KD of MS2 coat protein', 'µM', 0.124),
  ('CCCAGUUAUUCAGGAUAUUGUACAUGAGGAUCACCCAUGUAAUAAAUGAGGAUUUCGGGUGUCUACAAGAAGGGAAGGAUAGGC [Ostracism 19 - Jieux - Exclusion NG 2] (Eterna round: R96, puzzle: Exclusion NG 2)', 'apparent KD of MS2 coat protein', 'µM', 0.0238);

Prompt line: Which apparent KD of MS2 coat protein is reported for this sequence? GGUACUCAAAGAGUACCAAUACGAACAUGAGGAUCACCCAUGUAGGAUAUGCUACUCAAAGAGUAGCAGAAGGAUAUGAUGGAU [Far Half Aptamer v15] (Eterna round: R96, puzzle: Exclusion NG 3)
Response line: 0.0192

Prompt line: Same question, GCAGCUAAUGCAGGAUAUCAGCACGAUUAGUGCUGAGAAGGGCACAUGAGGAUCACCCAUGUGAUCAAUUAAUAUUAAUGCUGC [ENG1/11-B1] (Eterna round: R96, puzzle: Exclusion NG 1) this time
Response line: 0.024

Provenance of the data: the supplement of paper PMC9170038
